Values from ChEMBL document CHEMBL1159065

Test: Partition coefficient, log P by shake flask method
Format: physicochemical
Settings: octanol/water
quantity name: logP
No unit in the answer, please; the number alone is enough.

Record request: logP value, item "CC(=O)N(O)CCCCCNC(=O)CCC(=O)N(O)CCCCCNC(=O)CCC(=O)N(O)CCCCCNC(=O)C12CC3CC(CC(O)(C3)C1)C2" 0.29

Query: logP; subject: "CC(=O)N(O)CCCCCNC(=O)CCC(=O)N(O)CCCCCNC(=O)CCC(=O)N(O)CCCCCNC(=O)C12CC3CC(C)(CC(C)(C3)C1)C2" 2.92

For the molecule "CC(=O)N(O)CCCCCNC(=O)CCC(=O)N(O)CCCCCNC(=O)CCC(=O)N(O)CCCCCNC(=O)CC12CC3CC(CC(C3)C1)C2" , what logP is on record? 2.21

* * *

Experiment: Solubility in water
Format: physicochemical
quantity name: solubility (mM)
Provide the reading as a plain figure in mM.

For "CC(=O)N(O)CCCCCNC(=O)CCC(=O)N(O)CCCCCNC(=O)CCC(=O)N(O)CCCCCN" , what is its reported solubility? 400

* * *

Kindly supply the reported residual activity values for the records listed here.
Biological target: Serotransferrin (Homo sapiens) (UniProt P02787)
Sequence (P02787 whole entry): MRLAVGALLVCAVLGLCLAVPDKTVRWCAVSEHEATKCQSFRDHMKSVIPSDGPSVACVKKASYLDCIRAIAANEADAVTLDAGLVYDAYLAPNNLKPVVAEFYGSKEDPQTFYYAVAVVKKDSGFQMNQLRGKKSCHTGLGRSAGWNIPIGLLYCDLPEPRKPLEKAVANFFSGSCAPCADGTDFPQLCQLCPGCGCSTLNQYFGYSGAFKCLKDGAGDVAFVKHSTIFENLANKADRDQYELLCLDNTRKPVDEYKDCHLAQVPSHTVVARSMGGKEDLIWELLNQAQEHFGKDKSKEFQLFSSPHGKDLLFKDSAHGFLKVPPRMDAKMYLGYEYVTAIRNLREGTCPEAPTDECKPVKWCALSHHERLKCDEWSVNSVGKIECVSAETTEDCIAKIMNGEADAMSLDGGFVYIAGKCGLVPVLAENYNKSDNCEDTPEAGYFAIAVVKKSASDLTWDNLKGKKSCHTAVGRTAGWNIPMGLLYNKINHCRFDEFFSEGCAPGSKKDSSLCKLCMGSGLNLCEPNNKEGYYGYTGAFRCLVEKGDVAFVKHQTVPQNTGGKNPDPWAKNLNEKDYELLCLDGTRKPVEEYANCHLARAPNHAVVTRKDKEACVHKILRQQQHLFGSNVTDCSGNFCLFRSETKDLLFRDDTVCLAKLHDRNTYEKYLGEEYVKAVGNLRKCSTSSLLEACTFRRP
Experiment: Inhibition of [59Fe] uptake from [59Fe]transferrin in human SK-N-MC cells assessed as at 50 uM after 3 hrs relative to untreated control; values are per cent of control
API: value field is a number in %; no unit string.

Recorded residual activity for "CC(=O)N(O)CCCCCNC(=O)CCC(=O)N(O)CCCCCNC(=O)CCC(=O)N(O)CCCCCNC(=O)C12CC3CC(C)(CC(C)(C3)C1)C2" with Serotransferrin (Homo sapiens) (UniProt P02787), please? 18

Lookup: residual activity / Serotransferrin (Homo sapiens) (UniProt P02787) / "CN(C)C(=S)NN=C(c1ccccn1)c1ccccn1" 12

Fill in the recorded residual activity for this compound, with Serotransferrin (Homo sapiens) (UniProt P02787) as test system: CC(=O)N(O)CCCCCNC(=O)CCC(=O)N(O)CCCCCNC(=O)CCC(=O)N(O)CCCCCN [DEFEROXAMINE] 87

Identify the measured residual activity of O=C(O)c1ccc(-n2nc(-c3ccccc3O)nc2-c2ccccc2O)cc1 [DEFERASIROX] for Serotransferrin (Homo sapiens) (UniProt P02787). 39

* * *

Test: Toxicity in MDCK cells by MTT method
Assay type: cell-based, Canis lupus familiaris
Conditions: dog
pIC50: −log10 of the molar value.
quantity name: pIC50

For "CC(=O)N(O)CCCCCNC(=O)CCC(=O)N(O)CCCCCNC(=O)CCC(=O)N(O)CCCCCNC(=O)Cn1ccc(=O)c(O)c1C" , what is its reported pIC50? < 3.52

Entry "CC(=O)N(O)CCCCCNC(=O)CCC(=O)N(O)CCCCCNC(=O)CCC(=O)N(O)CCCCCNC(=O)C12CC3CC(CC(O)(C3)C1)C2" : reported pIC50 = ? < 4.00

Item under review: "CC(=O)N(O)CCCCCNC(=O)CCC(=O)N(O)CCCCCNC(=O)CCC(=O)N(O)CCCCCNC(=O)COc1ccc(C)cc1" . Reported pIC50? < 3.82
